A collection of compounds and their measured 3 month aqueous stability at 40° C.
PROCEDURE TEXT: Aqueous stability in HBSS buffer at 40° C. (HPLC-UV)
Format: physicochemical
TEST CONTEXT: 3% wt/wt or 0.4% wt/wt in HBSS buffer, glass vials, 3 month, 40° C., HPLC-UV; in % (unit assumed)
Residues, ends and D or L forms follow the SMILES beside them.
In your answer, state the number alone without any accompanying words.

| COMPOUND | RECORDED MEASUREMENT |
| --- | --- |
| O=C(O)[C@H](CO)NC(=O)[C@@H]1CCCN1 [Pro-Ser] (H-Pro-Ser-OH) | 49.0 |
| C[C@H](N)C(=O)N[C@@H](CCC(N)=O)C(=O)O [Ala-Gln] (H-Ala-Gln-OH) | 100.1 |
| NCC(=O)N[C@@H](Cc1cnc[nH]1)C(=O)O [Gly-His] (H-Gly-His-OH) | 79.3 |
| CC(C)[C@H](N)C(=O)N[C@@H](Cc1ccc(O)cc1)C(=O)O [Val-Tyr] (H-Val-Tyr-OH) | 98.2 |

Please look at the following compound next.
Ask: Supply recorded 3 month aqueous stability at 40° C. for C[C@H](N)C(=O)N[C@@H](CCC(=O)O)C(=O)O [Ala-Glu] (H-Ala-Glu-OH) here.
Result: 99.0

###

PROCEDURE TEXT: Skin homogenate study (degradation half-life, LC-MS/MS)
Type: in vitro ADME, human
TEST CONTEXT: pooled human skin homogenate, 37° C., compound working solution 40 μg/mL mixed with equal volume of homogenate
Residues, ends and D or L forms follow the SMILES beside them.
EXPERIMENTAL READOUT: Half life in skin homogenate (min)
Respond with the bare value in min.

| COMPOUND | Half life in skin homogenate [min] |
| --- | --- |
| C[C@H](N)C(=O)NCC(=O)O [Ala-Gly] (H-Ala-Gly-OH) | 60 |
| N[C@@H](Cc1ccc(O)cc1)C(=O)N1CCC[C@H]1C(=O)O [Tyr-Pro] (H-Tyr-Pro-OH) | 29 |
| C[C@H](NC(=O)[C@@H](N)Cc1ccc(O)cc1)C(=O)O | 50 |
| N[C@@H](CO)C(=O)N1CCC[C@H]1C(=O)O [Ser-Pro] (H-Ser-Pro-OH) | 41 |
| O=C(O)[C@@H]1CCCN1C(=O)[C@@H]1CCCN1 [Pro-Pro] (H-Pro-Pro-OH) | 116 |
| CC(C)[C@H](N)C(=O)N1CCC[C@H]1C(=O)O [Val-Pro] (H-Val-Pro-OH) | 39 |

Please look at the following compound next.
Ask: Supply recorded Half life in skin homogenate for NCCCC[C@H](N)C(=O)N1CCC[C@H]1C(=O)O [Lys-Pro] (H-Lys-Pro-OH) here.
Result: 52

###

A collection of compounds and their measured 1 month aqueous stability at 40° C.
PROCEDURE TEXT: Aqueous stability in HBSS buffer at 40° C. (HPLC-UV)
Format: physicochemical
TEST CONTEXT: 3% wt/wt or 0.4% wt/wt in HBSS buffer, glass vials, 1 month, 40° C., HPLC-UV; in % (unit assumed)
Protocol: An important aspect of formulating a stable topical product. Data in Table 4 below gives 1 month and 3 month stability data at 40° C. Compounds were dissolved at 3% wt/wt or 0.4% wt/wt (if 3% was not possible) in HBSS buffer and stored in glass vials at temperature. Samples were subsequently analyzed by HPLC-UV.
Residues, ends and D or L forms follow the SMILES beside them.
In your answer, state the number alone without any accompanying words.

Take a look at these entries with their results.
| COMPOUND | 1 month aqueous stability at 40° C. |
| --- | --- |
| NCC(=O)N[C@@H](CCC(=O)O)C(=O)O [Gly-Glu] (H-Gly-Glu-OH) | 99.0 |
| NCC(=O)N[C@@H](Cc1cnc[nH]1)C(=O)O [Gly-His] (H-Gly-His-OH) | 99.8 |
| CC(C)[C@H](N)C(=O)N[C@@H](Cc1ccc(O)cc1)C(=O)O [Val-Tyr] (H-Val-Tyr-OH) | 100.7 |

Please look at the following compound next.
Ask: Supply recorded 1 month aqueous stability at 40° C. for O=C(O)[C@H](CO)NC(=O)[C@@H]1CCCN1 [Pro-Ser] (H-Pro-Ser-OH) here.
Result: 78.1
